Please go through the items and note down their pIC50.
Test system: SKBr3 (estrogen receptor negative, HER2 over-expressing breast cancer cells)
run.description: Anti-proliferation assay (MTS/PMS, 72 h), SKBr3
Format: cell-based
test.settings: Homo sapiens, SK-BR-3, Table 9, para-meta biphenyl core with prenylated benzylamide
One number for each entry, as −log10 of the molar value.

given.smiles: CC(C)=CCc1cc(C(=O)Nc2cccc(-c3ccc(OC4CCN(C)CC4)cc3)c2)ccc1O
target.system: SKBr3 (estrogen receptor negative, HER2 over-expressing breast cancer cells)
number: 5.53

// switching to the query compound
Ask: Request the reported pIC50 associated with `COc1cccc(-c2cc(C(=O)Nc3cccc(-c4ccc(OC5CCN(C)CC5)cc4)c3)ccc2OC)c1`
Result: 5.46
